Below: a set of entries, each annotated with reported AUC (% of vehicle), chemotaxis, SUPB-15, 1.0 uM.
target: CXCR4 receptor (human, UniProt P61073 1-352); test: cell-based or functional assay
Sequence (P61073 whole entry): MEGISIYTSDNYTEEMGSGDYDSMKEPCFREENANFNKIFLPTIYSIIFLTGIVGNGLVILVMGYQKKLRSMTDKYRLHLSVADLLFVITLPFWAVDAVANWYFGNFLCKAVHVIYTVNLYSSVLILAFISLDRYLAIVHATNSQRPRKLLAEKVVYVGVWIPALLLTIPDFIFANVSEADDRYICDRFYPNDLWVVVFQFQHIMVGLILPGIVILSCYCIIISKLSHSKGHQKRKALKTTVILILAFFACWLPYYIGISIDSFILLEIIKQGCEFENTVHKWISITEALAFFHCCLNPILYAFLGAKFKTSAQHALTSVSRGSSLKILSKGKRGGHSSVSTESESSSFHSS
* marks the point of attachment. Palmitoyl = CCCCCCCCCCCCCCCC(=O)*

As a guide, the following entries are already answered.
[[record]]
binder = "Palmitoyl-HATNSQRPRKLLAEK-NH2 (SMILES CCCCCCCCCCCCCCCC(=O)N[C@@H](Cc1c[nH]cn1)C(=O)N[C@@H](C)C(=O)N[C@H](C(=O)N[C@@H](CC(N)=O)C(=O)N[C@@H](CO)C(=O)N[C@@H](CCC(N)=O)C(=O)N[C@@H](CCCNC(=N)N)C(=O)N1CCC[C@H]1C(=O)N[C@@H](CCCNC(=N)N)C(=O)N[C@@H](CCCCN)C(=O)N[C@@H](CC(C)C)C(=O)N[C@@H](CC(C)C)C(=O)N[C@@H](C)C(=O)N[C@@H](CCC(=O)O)C(=O)N[C@@H](CCCCN)C(N)=O)[C@@H](C)O) [CXCR4 i2 loop compound 82]"
experimental_value = "125 % of vehicle"

[[record]]
binder = "Palmitoyl-VHATNSQRPRKLLA-NH2 (SMILES CCCCCCCCCCCCCCCC(=O)N[C@H](C(=O)N[C@@H](Cc1c[nH]cn1)C(=O)N[C@@H](C)C(=O)N[C@H](C(=O)N[C@@H](CC(N)=O)C(=O)N[C@@H](CO)C(=O)N[C@@H](CCC(N)=O)C(=O)N[C@@H](CCCNC(=N)N)C(=O)N1CCC[C@H]1C(=O)N[C@@H](CCCNC(=N)N)C(=O)N[C@@H](CCCCN)C(=O)N[C@@H](CC(C)C)C(=O)N[C@@H](CC(C)C)C(=O)N[C@@H](C)C(N)=O)[C@@H](C)O)C(C)C) [CXCR4 i2 loop compound 78]"
experimental_value = "71.8 % of vehicle"


Req: // AUC (% of vehicle), chemotaxis, SUPB-15, 1.0 uM lookup, key: Palmitoyl-HATNSQRPRKL-NH2 (SMILES CCCCCCCCCCCCCCCC(=O)N[C@@H](Cc1c[nH]cn1)C(=O)N[C@@H](C)C(=O)N[C@H](C(=O)N[C@@H](CC(N)=O)C(=O)N[C@@H](CO)C(=O)N[C@@H](CCC(N)=O)C(=O)N[C@@H](CCCNC(=N)N)C(=O)N1CCC[C@H]1C(=O)N[C@@H](CCCNC(=N)N)C(=O)N[C@@H](CCCCN)C(=O)N[C@@H](CC(C)C)C(N)=O)[C@@H](C)O) [CXCR4 i2 loop compound 79]
Resp: 109 % of vehicle
